Read-out: Forkhead box O3 (FOXO3), FOXO3 (gene 2309)
EXPERIMENT_DESCRIPTION: LTEA_HepaRG_FOXO3: Life Technologies and Expression Analysis (LTEA) Assay for Forkhead box O3 (FOXO3) using HepaRG (AID 2283459)
COND: mRNA level, 48 h; actives raise or lower the signal
The source made the active and inactive calls. How the source made its calls: active means hit-call score of the fitted dose curve at least 0.9, where 1 is the maximum; inactive means score below 0.9.
One label from this list, please: active, inactive

[
  {
    "MOLECULE": "NCCO",
    "CLASS_LABEL": "inactive"
  }
]

Entry `CCCCCCCCCCCCCCCC` : call = ? inactive

====

SYSTEM_UNDER_TEST: Transcriptional activator Myb (Homo sapiens) (UniProt P10242)
Sequence (P10242 whole entry, looked up): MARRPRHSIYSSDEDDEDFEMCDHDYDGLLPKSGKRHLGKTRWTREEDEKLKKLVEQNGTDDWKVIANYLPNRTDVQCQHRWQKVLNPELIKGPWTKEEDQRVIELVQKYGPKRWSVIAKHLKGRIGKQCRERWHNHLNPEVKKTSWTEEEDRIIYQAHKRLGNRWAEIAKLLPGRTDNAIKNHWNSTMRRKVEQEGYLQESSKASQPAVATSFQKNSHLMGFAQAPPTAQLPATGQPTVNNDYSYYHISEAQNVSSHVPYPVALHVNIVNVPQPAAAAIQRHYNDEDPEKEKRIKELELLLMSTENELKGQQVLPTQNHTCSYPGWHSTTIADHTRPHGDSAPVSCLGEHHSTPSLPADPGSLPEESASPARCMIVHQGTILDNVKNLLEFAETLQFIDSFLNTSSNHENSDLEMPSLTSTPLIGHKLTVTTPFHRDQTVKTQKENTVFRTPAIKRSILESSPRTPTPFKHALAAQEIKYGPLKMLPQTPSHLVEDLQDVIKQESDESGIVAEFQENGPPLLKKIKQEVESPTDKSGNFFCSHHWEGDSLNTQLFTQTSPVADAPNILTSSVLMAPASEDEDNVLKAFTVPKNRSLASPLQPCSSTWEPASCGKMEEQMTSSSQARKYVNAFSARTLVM
EXPERIMENT_DESCRIPTION: ATG_Myb_CIS: Attagene CIS-FACTORIAL HepG2 Assay for human Myeloblastosis (Myb) Proto-Oncogene Transcription Factor (AID 2282986)
COND: HepG2 Attagene CIS-FACTORIAL Myb reporter transcription; actives raise or lower the signal
The source made the active and inactive calls. Rule for the calls: active = hit-call score of the fitted dose curve at least 0.9, where 1 is the maximum; inactive = score below 0.9.
Would you mind answering with one of these outcomes? 1 for active, 0 for inactive

Observe how each entry below is paired with its result.
[
  {
    "COMPOUND": "Cc1ccc(Cl)cc1",
    "CLASS_LABEL": 0
  },
  {
    "COMPOUND": "Cc1cccc([N+](=O)[O-])c1C",
    "CLASS_LABEL": 0
  },
  {
    "COMPOUND": "NC(=O)Cn1c(=O)cc(CCN2CCN(c3nccc4sccc34)CC2)c2ccc(F)cc21",
    "CLASS_LABEL": 0
  }
]

Per the assay record, what outcome was assigned to `CC1(C)NC(=O)NC1=O` ? 0

# fetch the recorded call for `CCOC(=O)CCC(=O)OCC` here 0

Field: outcome | Entry: `CCCCN(CCCC)CCCC` 0

Answer briefly: the call reported for `CCCCCCC(=O)OCC` in this assay. 0
